Each recorded value in this set is attributed to patent US8410302B2.

tested on: Rhizoctonia solani AG-1; assay: Fungicidal activity against rice sheath blight (RSB) disease, control value; settings: Rhizoctonia solani, AG1, in Oryza sativa, read-out: RSB control value (C.V.)
I'd be grateful if you could share measured pest or weed control at 10 ppm for these entries.
Kindly answer with a numeric value in %, unit omitted.

What does the data say about its pest or weed control at 10 ppm? Entry: CNC(=O)/C(=N/OC)c1ccccc1COc1cc(C=C(Br)Br)ccc1OC [Example 72]
98

How about CCOc1cc(C=C(Br)Br)ccc1OCc1ccccc1/C(=N\OC)C(=O)OC [Example 83] ?
98

Another: CO/N=C(/C(=O)OC)c1ccccc1COc1cccc(C=C(Cl)Cl)c1Cl [Example 43]
100

Then what about the compound CNC(=O)/C(=N/OC)c1ccccc1COc1ccc(C=C(Br)Br)cc1Cl [Example 64] ?
100
